target.of.assay: Env of HIV-1 strain H086.8 (HIV-1)
method.description: cell-based or functional assay
value.type: neutralization IC50 (µg/mL)
Numeric only. Scale: µg/mL

Data point: γ46κ61 (antibody, V domains shown) VH: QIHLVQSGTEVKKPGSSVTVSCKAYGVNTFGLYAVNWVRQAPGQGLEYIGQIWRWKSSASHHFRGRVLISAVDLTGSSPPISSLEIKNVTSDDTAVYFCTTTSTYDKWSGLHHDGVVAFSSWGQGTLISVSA VL: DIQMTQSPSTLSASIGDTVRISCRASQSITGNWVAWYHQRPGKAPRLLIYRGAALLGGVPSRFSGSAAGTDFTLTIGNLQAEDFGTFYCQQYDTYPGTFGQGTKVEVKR ; neutralization IC50 = 0.584
